Documented z-score across a set of molecules
# Method notes: JC-1 mitochondrial potential readout, lung cancer cells – cell-based, A549, JC-1 fluorescence, basal, 24 h, 100 nL, profiling panel (AID 1138);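 note: A549 lung adenocarcinoma cells under basal conditions with no added stimulus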
# Condition set: higher = more signal
Format: numeric value only, no unit, no commentary.

Field: example entries. Status: answers known.
[[record]]
molecule = "[N-]=[N+]=Nc1ccccc1[C@H]1OC(c2ccc(OCCCO)cc2)=N[C@@]1(Cc1ccccc1)C(=O)NCCN1CCOCC1"
observed_value = 2.49

[[record]]
molecule = "C=CCNC(=O)[C@@H]1[C@H]2C(=O)O[C@H](c3ccccc3)[C@H](c3ccccc3)N2[C@H](c2ccccc2OCCO)[C@@]12C(=O)Nc1ccc(C#CCC(C(=O)OC)C(=O)OC)cc12"
observed_value = -1.44

[[record]]
molecule = "CC1CC/C=C\\[C@H]2OC34C=CCN(C(C)C)C(=O)[C@H]3N(CCO)C(=O)[C@@H]4C2C(=O)O1 (stereo partly drawn)"
observed_value = 0.193

[[record]]
molecule = "CCOC(=O)C[C@H]1[C@H](OC(=O)c2ccc(-c3ccccc3)cc2)[C@@H](NC(=O)CC(C)C)c2cc(OCCCO)ccc2N1C(=O)c1ccc2ccccc2n1"
observed_value = 0.5

[[record]]
molecule = "CC(C)[Si]1(C(C)C)OCc2cc(-c3ccc(-c4ccc(Cl)c(Cl)c4)o3)nc(-c3ccccc3)c21"
observed_value = -0.447


# input Could you tell me which z-score is on file for CC[C@@H]1O[Si](C(C)C)(C(C)C)c2c1cc(-c1cc(C)c(OC)c(C)c1)nc2-c1ccc(Oc2ccccc2)cc1 ?
# output -0.413

# input Could you tell me which z-score is on file for CN(C)CCCCCCNC(=O)[C@@H]1C[C@@H]2C(=O)N3CCC[C@H]3C(=O)N2[C@@H]1c1cccc(OCCO)c1 ?
# output -0.17

# input Could you tell me which z-score is on file for COc1ccc([Si](C)(C)[C@H]2[C@H](CC(=O)N3Cc4ccccc4C[C@H]3CO)O[C@@]3(C(=O)N(Cc4ccc(N5CCOC5=O)cc4)c4ccccc43)[C@@H]2C)cc1 ?
# output 0.516

# input Could you tell me which z-score is on file for COC(=O)C1=CC(CCCO)=CC(c2ccc(CN3CCCC3)cc2)N(Cc2cccc(OC(F)(F)F)c2)C=C1C(=O)OC (stereo not drawn) ?
# output 2.87

----------
# Method notes: JC-1 mitochondrial signal, unstimulated myeloma cells – cell-based, JC-1 fluorescence, RPMI8226, 24 h, 100 nL compound, profiling panel (AID 1169)
# Condition set: JC-1 mitochondrial potential fluorescence, higher = more signal
Metric: z-score
Format: numeric value only, no unit, no commentary.

Field: example entries. Status: answers known.
[[record]]
compound = "Cc1ccc(S[C@]2(C(=O)NC(C)C)CC(=O)N(Cc3cc(C(F)(F)F)cc(C(F)(F)F)c3)[C@@H]2c2ccc(CO)cc2)cc1"
metric = "z-score"
observed_value = -0.555

[[record]]
compound = "[N-]=[N+]=NCc1ccccc1[C@H]1OC(c2ccc(OCCCO)cc2)=N[C@@]1(Cc1ccccc1N=[N+]=[N-])C(=O)NCC(O)CO (some centres not stated)"
metric = "z-score"
observed_value = -0.962

[[record]]
compound = "NCCCCCNC(=O)[C@@H]1C[C@@H]2C(=O)N[C@@H](CCCCN)C(=O)N2[C@@H]1c1ccc(O)cc1"
metric = "z-score"
observed_value = -0.457

[[record]]
compound = "CC1CC/C=C\\[C@H]2OC34C=CCN(C(C)C)C(=O)[C@H]3N(CCO)C(=O)[C@@H]4C2C(=O)O1 (some centres not stated)"
metric = "z-score"
observed_value = 0.021

[[record]]
compound = "COC(=O)[C@@]1(Cc2ccc(OC)cc2)[C@H]2c3cc(C(=O)N4CCCC4)n(CCO)c3C[C@H]2CN1C(=O)c1ccccc1"
metric = "z-score"
observed_value = 0.506


# input Could you tell me which z-score is on file for COc1cc(NN2C(C(O)c3ccc(N(C)C)cc3)C=CC3C(=O)N(c4ccccc4)C(=O)C32)cc(OC)c1OC (configuration not stated) ?
# output 0.134

# input Could you tell me which z-score is on file for CCOC(=O)C1=C[C@@H](c2ccccc2)N(S(=O)(=O)c2ccc(C)cc2)[C@H]1c1ccc(OC)cc1 ?
# output 0.692

----------
# Tested system: Torsin-1A (Homo sapiens) (UniProt O14656)
# Sequence (O14656 whole entry, looked up): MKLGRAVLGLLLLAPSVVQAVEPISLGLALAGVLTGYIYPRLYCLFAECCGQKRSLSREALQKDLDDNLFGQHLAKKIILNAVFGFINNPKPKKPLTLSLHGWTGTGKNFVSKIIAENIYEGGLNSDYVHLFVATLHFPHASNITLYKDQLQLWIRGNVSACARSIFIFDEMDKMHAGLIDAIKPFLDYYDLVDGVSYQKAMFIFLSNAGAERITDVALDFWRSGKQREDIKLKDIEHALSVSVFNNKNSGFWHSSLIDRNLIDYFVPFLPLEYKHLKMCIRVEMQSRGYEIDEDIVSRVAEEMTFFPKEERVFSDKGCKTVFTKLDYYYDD
# Method notes: torsin A mutant lysate binding on microarrays – cell lysate, small-molecule microarray, COS7 lysate, 635/667 nm fluorescence, primary screen (AID 1150);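 note: score pools 667 nm emission and signal to noise measuring lysate protein binding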
# Condition set: COS7 hTOR1A mutant lysate, 635 nm fluorescence, higher = more signal
Metric: composite z-score
Format: numeric value only, no unit, no commentary.

Field: example entries. Status: answers known.
[[record]]
compound = "O=C1N(CCS(=O)(=O)c2ccccc2)c2ccccc2[C@H]2OC(c3ccc(OCCCO)cc3)=N[C@@]12Cc1ccccc1"
observed_value = 1.07

[[record]]
compound = "C=CCC(OC(C)=O)[C@@H]1[C@@H](N(Cc2cc3ccccc3o2)C(=O)Cc2ccc(F)cc2)c2cc(OCCCO)ccc2N1C(=O)Cc1ccc2ccccc2c1 (some centres not stated)"
observed_value = -0.337

[[record]]
compound = "C=CCOC(=O)[C@@H]1[C@H]2C(=O)O[C@H](c3ccccc3)[C@H](c3ccccc3)N2[C@H](c2ccc(OCCOC(=O)[C@@H]3C[C@@H]4C(=O)N[C@@H](CCCC[N+](C)(C)C)C(=O)N4[C@@H]3c3ccc(O)cc3)cc2)[C@@]12C(=O)Nc1ccc(I)cc12"
observed_value = 0.781

[[record]]
compound = "CCCN1C(=O)[C@]2(Cc3ccccc31)N=C(c1ccc(OCCCO)cc1)O[C@@H]2c1ccccc1"
observed_value = 0.423

[[record]]
compound = "COCC(=C=CC[C@H](O)c1ccccc1OCCO)C[C@H](O)c1ccccn1"
observed_value = 0.71


# input Could you tell me which composite z-score is on file for CCCCC(=C=CC[C@H](O)c1ccc(OCCO)cc1)CCO ?
# output 1.58

# input Could you tell me which composite z-score is on file for C=C(COC)C(=O)CC[C@@H](OC(C)=O)c1cccc(OCCO)c1 ?
# output -0.708

----------
# Test system: XIP peptide (Xip251-270) binding
# Method notes: XIP fragment 251-270 binding compounds – biochemical, small-molecule microarray, fluorescence 635/667 nm, 0.1 µg/mL protein, primary screen (AID 1182)
# Condition set: fluorescent protein binding, 635 nm, higher = more signal, called active from +8 up or from −8 down
Please use True whenever composite z-score is not below 0.7, and False whenever it is.

[[record]]
compound = "CC(C)[Si](C#C[Si](C(C)C)(C(C)C)C(C)C)(O[C@H](c1ccccc1)c1cn(Cc2ccccc2)nn1)C(C)C"
class = "False"


# input Dear colleague, could you confirm whether CCCCC(CC)C(O)C1C=CC2C(=O)N(C)C(=O)C2N1Nc1ccccc1 (centres undefined) has composite z-score at or above 0.7?
# output False

# input Dear colleague, could you confirm whether CC1=C2[C@@H](CCc3ccccc3)OB(O)C[C@@H]2[C@@H]2C(=O)N(Cc3ccccc3)C(=O)[C@@H]2C1 has composite z-score at or above 0.7?
# output False

# input Dear colleague, could you confirm whether COc1cccc(C)c1NC(=O)O[C@H]1[C@H](OC(=O)Nc2ccc3c(c2)OCO3)[C@@H](OC(=O)Nc2ccc3c(c2)OCO3)[C@@H](OC)O[C@@H]1CO has composite z-score at or above 0.7?
# output False

# input Dear colleague, could you confirm whether COCCOC(=O)N1C(=O)[C@@]2(c3cc(C#CC4=CCCCC4)ccc31)[C@H](c1ccccc1OCCO)N1[C@H](c3ccccc3)[C@H](c3ccccc3)OC(=O)[C@H]1[C@@H]2C(=O)NC[C@H](O)c1ccccc1 has composite z-score at or above 0.7?
# output True

# input Dear colleague, could you confirm whether O=C1CS(=O)(=O)C(c2cccc([N+](=O)[O-])c2)N1c1ccccc1 (centres undefined) has composite z-score at or above 0.7?
# output True

# input Dear colleague, could you confirm whether O=C1OCCC/C=C\[C@H]2OC34C=CCN(c5ccc6ccccc6c5)C(=O)[C@H]3N(CCO)C(=O)[C@@H]4C12 (some centres undefined) has composite z-score at or above 0.7?
# output False

----------
# Method notes: viability profiling in MM1S myeloma cells – cell-based, resazurin fluorescence, basal, 24 h, PK04 Diversity Set, profiling panel (AID 1174);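 note: MM1S multiple myeloma cell line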
# Condition set: higher = more signal, called active from +8 up or from −8 down
Documented z-score across a set of molecules
Format: numeric value only, no unit, no commentary.

Field: example entries. Status: answers known.
[[record]]
molecule = "CCCCC(O)C1C=CC2C(=O)N(C)C(=O)C2N1N(c1ccccc1)c1ccccc1 (configuration not stated)"
observed_value = -1.65

[[record]]
molecule = "[N-]=[N+]=Nc1ccccc1C[C@]1(C(=O)O)COC(c2ccc(OCCCO)cc2)=N1"
observed_value = 0.037

[[record]]
molecule = "C=CCC(OC(C)=O)[C@@H]1[C@@H](N(Cc2cccc3ccccc23)C(=O)Cc2ccc(OC)cc2)c2cc(OCCCO)ccc2N1C(=O)c1ccc(-c2ccccc2)cc1 (some centres not stated)"
observed_value = 0.551

[[record]]
molecule = "CS(=O)(=O)CCOC(=O)C1=CC(CCCO)=CC(c2ccc(CN3CCCC3)cc2)N(Cc2sc3ccccc3c2Cl)C=C1C(=O)OCCS(C)(=O)=O (configuration not stated)"
observed_value = -0.0646


# input Could you tell me which z-score is on file for CC1CC/C=C\[C@H]2OC34C=CCN(C(C)C)C(=O)[C@H]3N(CCO)C(=O)[C@@H]4C2C(=O)O1 (some centres not stated) ?
# output 0.802

# input Could you tell me which z-score is on file for CO[C@H]1O[C@H](CO)[C@@H](OC(=O)CCc2ccccc2)[C@@H]2OC(=O)[C@@H](Cc3ccccc3)C/C=C/C[C@H](Cc3ccccc3)C(=O)O[C@@H]12 ?
# output -0.887

# input Could you tell me which z-score is on file for O=C(C1N=C(c2ccc(OCCCO)cc2)N(c2ccccc2)O1)N1CCCCC1 (configuration not stated) ?
# output 1.15
